MEASUREMENT LABEL: melting point

The molecule listed as COc1ccc(C(=O)Nc2ccc(F)c(F)c2)cc1NS(=O)(=O)NC(=O)OCCCO has a reported melting point of 178 to 179 °C

Data point: COc1ccc(C(=O)Nc2ccc(F)c(F)c2)cc1NS(=O)(=O)NC(=O)Nc1ccc(C(C)(C)C)cc1 (hydrate or solvate) ; melting point = 199 to 202 °C

The recorded melting point for COc1ccc(C(=O)Nc2ccc(F)c(F)c2)cc1NS(=O)(=O)NC(=O)Nc1cccc(Cl)c1 is 193 to 196 °C

get_value(item= COc1ccc(C(=O)Nc2ccc(F)c(F)c2)cc1NS(=O)(=O)NC(=O)OC/C=C/c1ccccc1 , readout=melting point) returns 159 to 163 °C

Please fill in: melting point reported for COc1ccc(-c2cc3cc(F)c(F)cc3[nH]2)cc1NS(=O)(=O)NC(=O)OCCCOCc1ccccc1 = 166 to 168 °C

Recorded result, COc1ccc(-c2cc3cc(F)c(F)cc3[nH]2)cc1NS(N)(=O)=O , melting point: 177 to 180 °C

Record COc1ccc(C(=O)Nc2ccc(F)c(F)c2)cc1NS(=O)(=O)NC(=O)Nc1cccc(C(F)(F)F)c1 . Reported melting point: 198 to 200 °C

---

# STUDY TARGET: human 15-LO (Homo sapiens)
# EXPERIMENTAL PROTOCOL: Human Lysate 15-LO Assay (HUM15LO)
# APPLIED CONDITIONS: recombinant human 15-LO, 174 μM linoleic acid, 15 minutes at 4° C., 13-HODE quantitated
MEASUREMENT LABEL: pIC50
By convention, pIC50 is the negative base-10 log of a molar concentration.

Test item COc1ccc(C(=O)Nc2ccc(F)c(F)c2)cc1NS(=O)(=O)NC(=O)Nc1cccc(Cl)c1 ; human 15-LO (Homo sapiens); reported pIC50 was 7.41

human 15-LO (Homo sapiens) data for COc1ccc(C(=O)Nc2ccc(F)c(F)c2)cc1NS(=O)(=O)NC(=O)OCCCN(C)C ; its pIC50: 6.39

Entry COc1ccc(NC(=O)NS(=O)(=O)Nc2cc(C(=O)Nc3ccc(F)c(F)c3)ccc2OC)cc1 : pIC50 on human 15-LO (Homo sapiens) = 6.65

Result for COC(=O)COC(=O)NS(=O)(=O)Nc1cc(-c2cc3cc(F)c(F)cc3[nH]2)ccc1OC , tested on human 15-LO (Homo sapiens), pIC50: 7.52

Summary line: COc1ccc(C(=O)Nc2ccc(F)c(F)c2)cc1NS(=O)(=O)NC(=O)Nc1cc(C(F)(F)F)cc(C(F)(F)F)c1 , human 15-LO (Homo sapiens), reported pIC50 = 6.76

human 15-LO (Homo sapiens) pIC50 of COc1ccc(C(=O)Nc2ccc(F)c(F)c2)cc1NS(=O)(=O)NC(=O)OCCN1C(=O)c2ccccc2C1=O is 6.47

Value sought: pIC50, system human 15-LO (Homo sapiens), item COc1ccc(NS(=O)(=O)NC(=O)Nc2cc(C(=O)Nc3ccc(F)c(F)c3)ccc2OC)cc1 . Result: 5.98

---

# STUDY TARGET: UniProt:P16050
# EXPERIMENTAL PROTOCOL: Human Lysate 15-LO Assay (HUM15LO)
# APPLIED CONDITIONS: recombinant human 15-LO, 174 μM linoleic acid, 15 minutes at 4° C., 13-HODE quantitated
MEASUREMENT LABEL: log10 of IC50 (log10 of the value in nM)
// do not treat as linear: log10 of IC50, unit nM

Value of measured log10 of IC50 for the entry COC(=O)NS(=O)(=O)Nc1cc(-c2cc3cc(F)c(F)cc3[nH]2)ccc1OC : 1.93

Consider COc1ccc(C(=O)Nc2ccc(F)c(F)c2)cc1NS(=O)(=O)NC(=O)Nc1ccccc1 [Example 18] . Its measured log10 of IC50 is 2.15

Reported log10 of IC50 for COc1ccc(-c2cc3cc(F)c(F)cc3[nH]2)cc1NS(N)(=O)=O was 1.08

Reported log10 of IC50 for CCOCCOC(=O)NS(=O)(=O)Nc1cc(-c2cc3cc(F)c(F)cc3[nH]2)ccc1OC was 1.73

The measured log10 of IC50 associated with COc1ccc(C(=O)Nc2ccc(F)c(F)c2)cc1NS(=O)(=O)NC(=O)OCCCOCc1ccccc1 reads 1.81

Entry COc1ccc(C(=O)Nc2ccc(F)c(F)c2)cc1NS(=O)(=O)NC(=O)Nc1cccc(C(F)(F)F)c1 , log10 of IC50 reported as 1.38

Please fill in: log10 of IC50 reported for COc1ccc(-c2cc3cc(F)c(F)cc3[nH]2)cc1NS(=O)(=O)NC(=O)OC/C=C/c1ccccc1 = 1.20

In plain terms, CCOCCOC(=O)NS(=O)(=O)Nc1cc(C(=O)Nc2ccc(F)c(F)c2)ccc1OC has a documented log10 of IC50 of 2.49

---

MEASUREMENT LABEL: melting point

The compound listed as COc1ccc(-c2cc3cc(F)c(F)cc3[nH]2)cc1NS(=O)(=O)NC(=O)OC(C)(C)C (hydrate or solvate) shows melting point equal to 158 to 160 °C

Reported melting point ( CCCCCCOC(=O)NS(=O)(=O)Nc1cc(C(=O)Nc2ccc(F)c(F)c2)ccc1OC ) = 175 to 178 °C

Briefly, melting point measured for CCOCCOC(=O)NS(=O)(=O)Nc1cc(-c2cc3cc(F)c(F)cc3[nH]2)ccc1OC : 178 to 181 °C

The compound listed as COc1ccc(-c2cc3cc(F)c(F)cc3[nH]2)cc1NS(=O)(=O)NC(=O)OC/C=C/c1ccccc1 shows melting point equal to 149 to 152 °C

melting point recorded for this compound, COc1ccc(C(=O)Nc2ccc(F)c(F)c2)cc1NS(=O)(=O)NC(=O)OC(C)(C)C , is 193 to 194 °C

Measured melting point, CCCCCCOC(=O)NS(=O)(=O)Nc1cc(-c2cc3cc(F)c(F)cc3[nH]2)ccc1OC : 186 to 188 °C

What the record says about COc1ccc(C(=O)Nc2ccc(F)c(F)c2)cc1NS(=O)(=O)NC(=O)OCC(C)C : melting point is 188 to 190 °C

For reference, reported melting point for COc1ccc(-c2cc3cc(F)c(F)cc3[nH]2)cc1NS(=O)(=O)NC(=O)OCCc1ccccc1 (hydrate or solvate) stands at 180 to 182 °C

Value of melting point reported for the compound COc1ccc(C(=O)Nc2ccc(F)c(F)c2)cc1NS(=O)(=O)NC(=O)Nc1ccc(Cl)cc1 is 195 to 198 °C

---

# STUDY TARGET: human 15-LO (Homo sapiens, UniProt P16050)
# Construct: made in house; host or cells: Sf9 insect cells (baculovirus, Bac-to-Bac)
# Sequence (P16050 whole entry): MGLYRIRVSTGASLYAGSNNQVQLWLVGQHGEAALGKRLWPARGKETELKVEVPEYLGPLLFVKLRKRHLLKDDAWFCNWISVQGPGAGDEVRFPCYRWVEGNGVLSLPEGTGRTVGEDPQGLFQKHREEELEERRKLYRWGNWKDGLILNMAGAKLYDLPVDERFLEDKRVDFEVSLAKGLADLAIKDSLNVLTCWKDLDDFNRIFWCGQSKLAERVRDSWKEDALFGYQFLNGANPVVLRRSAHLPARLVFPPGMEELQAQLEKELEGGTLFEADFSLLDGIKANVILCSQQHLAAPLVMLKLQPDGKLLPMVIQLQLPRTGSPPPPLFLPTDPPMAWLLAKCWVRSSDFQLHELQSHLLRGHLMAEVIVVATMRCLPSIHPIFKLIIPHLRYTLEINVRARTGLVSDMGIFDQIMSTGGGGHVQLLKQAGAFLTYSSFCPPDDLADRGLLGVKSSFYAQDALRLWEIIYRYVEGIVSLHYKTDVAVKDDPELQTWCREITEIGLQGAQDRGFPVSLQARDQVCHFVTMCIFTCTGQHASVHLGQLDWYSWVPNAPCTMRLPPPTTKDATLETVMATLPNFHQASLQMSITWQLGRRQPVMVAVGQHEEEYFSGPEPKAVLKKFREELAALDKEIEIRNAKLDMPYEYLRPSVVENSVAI
# EXPERIMENTAL PROTOCOL: Human Lysate 15-LO Assay (HUM15LO)
# Format: biochemical
# APPLIED CONDITIONS: recombinant human 15-LO, 174 μM linoleic acid, 15 minutes at 4° C., 13-HODE quantitated
MEASUREMENT LABEL: pIC50
Keep in mind that pIC50 stands for -log10 of concentration in molar terms.

Short answer for COc1ccc(C(=O)Nc2ccc(F)c(F)c2)cc1NS(=O)(=O)NC(=O)OCCCBr : pIC50 was 6.81

Field pIC50 (entry CCCCCCOC(=O)NS(=O)(=O)Nc1cc(-c2cc3cc(F)c(F)cc3[nH]2)ccc1OC ) reads 7.92

Please fill in: pIC50 reported for COc1ccc(-c2cc3cc(F)c(F)cc3[nH]2)cc1NS(=O)(=O)NC(=O)OCCc1ccccc1 = 7.82

Notebook: COc1ccc(C(=O)Nc2ccc(F)c(F)c2)cc1NS(=O)(=O)NC(=O)Nc1cc(Cl)cc(Cl)c1 , pIC50 read as 7.43

The measured pIC50 associated with COc1ccc(-c2cc3cc(F)c(F)cc3[nH]2)cc1NS(=O)(=O)N(C)C(=O)OCCCOCc1ccccc1 reads 7.52

Kindly note the recorded pIC50 for COc1ccc(C(=O)Nc2ccc(F)c(F)c2)cc1NS(=O)(=O)NC(=O)Nc1cccc([N+](=O)[O-])c1 , which is 7.60

pIC50 measured on COc1ccc(-c2cc3cc(F)c(F)cc3[nH]2)cc1NS(=O)(=O)NC(=O)Nc1ccc(C)cc1 = 7.74

---

# STUDY TARGET: human 15-LO (Homo sapiens, UniProt P16050)
# EXPERIMENTAL PROTOCOL: Human Lysate 15-LO Assay (HUM15LO)
# APPLIED CONDITIONS: recombinant human 15-LO, 174 μM linoleic acid, 15 minutes at 4° C., 13-HODE quantitated
pIC50: −log10 of the molar value.
Label Yes when pIC50 >= 7; otherwise No.

Say whether COc1ccc(C(=O)Nc2ccc(F)c(F)c2)cc1NS(=O)(=O)NC(=O)OCCN(C)C shows pIC50 of 7 or more. No

Textbook exercise: given the entry CCCCOC(=O)NS(=O)(=O)Nc1cc(-c2cc3cc(F)c(F)cc3[nH]2)ccc1OC , state whether its pIC50 is greater than or equal to 7. Yes

I'd appreciate it if you could say whether COc1ccc(C(=O)Nc2ccc(F)c(F)c2)cc1NS(=O)(=O)NC(=O)Nc1ccccc1 [Example 67] has pIC50 at least equal to 7. No

Decide: is the reported value of pIC50 for COc1ccc(-c2cc3cc(F)c(F)cc3[nH]2)cc1NS(=O)(=O)NC(=O)Nc1cc(Cl)cc(Cl)c1 equal to or greater than 7? Yes

Decide: is the reported value of pIC50 for CCCCCCOC(=O)NS(=O)(=O)Nc1cc(C(=O)Nc2ccc(F)c(F)c2)ccc1OC equal to or greater than 7? Yes

Exam item: decide whether the reported pIC50 for COc1ccc(C(=O)Nc2ccc(F)c(F)c2)cc1NS(=O)(=O)NC(=O)Nc1ccc(C(C)(C)C)cc1 is at least 7. Yes

Data provenance: patent US6906094B2
